# experiment: Quantitative highthroughput screen to assess conditional lethalithy of SEM cells grown in RPMI1640 with dialyzed fetal bovine serum (RPMI+ds) (AID 1963884); also: nearly all actives have a fitted effect of over 35% in size
# protocol_conditions: SEM B-ALL cells, RPMI+dialyzed FBS, CellTiter-Glo viability, 48 h; series mostly up to 45.8 µM
Inconclusive results are not listed. The source made the active and inactive calls. Calls follow the shape of the dose curve; as a rule, active = well fitted cell-killing curve with a large enough effect; inconclusive = small, poorly fitted or top-dose-only effect, or effect the other way; inactive = no such curve, though single readings can be large or run the other way.
API: response.call in T = active, F = inactive

Inquiry: Hey, what did the test say about C[C@@H](NC(=O)c1ncnc(N)c1Cl)c1ncc(C(=O)Nc2cc(C(F)(F)F)c(Cl)cn2)s1 ?
Reply text: F

Inquiry: Lab log entry: CC(C)C[C@H](NC(=O)CNC(=O)c1cc(Cl)ccc1Cl)B1OC(=O)CC(CC(=O)O)(C(=O)O)O1 (stereo partly specified) — outcome as called in the assay?
Reply text: T

Inquiry: Query: recorded result category for CCCn1c(=O)c2[nH]c(C34CC5CC3C[C@@H](C5)C4)nc2n(CCC)c1=O in this test
Reply text: F

Inquiry: Can you look up the reported call for CNS(=O)(=O)CCc1ccc2[nH]cc(C3CCN(C)CC3)c2c1 for me?
Reply text: F

Inquiry: Entry COc1cc(C(C)C)c2c(c1)S(=O)(=O)N(COc1cc(=O)n3cccc(OCCN4CCCCC4)c3n1)C2=O : call = ?
Reply text: F

Inquiry: What outcome does the record of this test show for C[C@@H](Cc1cc2c(c(C(N)=O)c1)N(CCCO)CC2)NCCOc1ccccc1OCC(F)(F)F ?
Reply text: F
